assayed-system: human TRPM5 ion channel (Homo sapiens)
Sequence (Q9NZQ8 1-1165): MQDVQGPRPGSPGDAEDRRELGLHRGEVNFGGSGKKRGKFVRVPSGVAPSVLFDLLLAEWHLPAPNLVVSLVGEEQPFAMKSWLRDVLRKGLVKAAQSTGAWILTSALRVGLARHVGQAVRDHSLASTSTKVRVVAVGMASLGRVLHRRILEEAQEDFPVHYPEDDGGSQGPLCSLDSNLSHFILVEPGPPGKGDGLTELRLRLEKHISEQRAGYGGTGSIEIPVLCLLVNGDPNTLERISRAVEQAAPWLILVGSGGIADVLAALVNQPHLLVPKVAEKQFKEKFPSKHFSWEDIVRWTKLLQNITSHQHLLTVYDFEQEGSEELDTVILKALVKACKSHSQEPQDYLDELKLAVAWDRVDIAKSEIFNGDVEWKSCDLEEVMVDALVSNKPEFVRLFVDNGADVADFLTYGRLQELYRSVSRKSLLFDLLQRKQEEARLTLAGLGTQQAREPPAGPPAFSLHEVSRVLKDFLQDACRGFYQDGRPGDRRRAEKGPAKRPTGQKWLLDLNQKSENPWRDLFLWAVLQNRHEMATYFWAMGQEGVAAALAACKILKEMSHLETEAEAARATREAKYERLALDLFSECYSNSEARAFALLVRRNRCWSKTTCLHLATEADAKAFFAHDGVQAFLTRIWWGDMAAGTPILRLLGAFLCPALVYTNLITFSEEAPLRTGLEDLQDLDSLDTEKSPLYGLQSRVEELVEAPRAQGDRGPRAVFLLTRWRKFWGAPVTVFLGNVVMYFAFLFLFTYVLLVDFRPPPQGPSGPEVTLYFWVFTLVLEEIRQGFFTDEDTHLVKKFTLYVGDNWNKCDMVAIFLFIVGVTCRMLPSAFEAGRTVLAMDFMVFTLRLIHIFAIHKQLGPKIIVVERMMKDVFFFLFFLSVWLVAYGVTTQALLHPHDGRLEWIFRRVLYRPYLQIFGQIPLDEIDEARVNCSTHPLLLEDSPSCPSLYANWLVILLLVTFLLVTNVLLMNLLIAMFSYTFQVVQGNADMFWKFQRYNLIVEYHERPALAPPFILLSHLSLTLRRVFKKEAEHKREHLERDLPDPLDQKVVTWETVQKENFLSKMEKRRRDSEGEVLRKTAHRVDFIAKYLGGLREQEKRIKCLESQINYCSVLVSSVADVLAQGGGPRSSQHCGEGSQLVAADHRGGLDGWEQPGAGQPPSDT
assay-notes: FLIPR-based assay for membrane potential and calcium mobilization (TRPM5 inhibiting activity)
conditions-used: live cells, 30° C., read-out: hTrpM5 IC50
Recorded IC50 by entry
Kindly provide the numeric value in nM only, without the unit symbol.

// known answers, use as guide
COc1ccc(/C=N/NC(=O)CCc2cn(C)c3ccccc23)cc1OC :: 51
COc1ccc(/C=N/NC(=O)CCc2cn(C)c3c(C)cccc23)cc1OC :: 9
COc1ccc(/C=N/NC(=O)[C@@H]2C[C@H]2c2cccc(C)n2)cc1OC (relative stereo) :: 3200

Now for the compound whose IC50 we want.
[in] What value of measured IC50 is listed for Cc1cc(/C=N/NC(=O)[C@@H]2C[C@H]2c2cccc(Cl)c2)cc2cccnc12 (relative stereo) ?
[out] 800

----------
assayed-system: human TRPM5 ion channel (Homo sapiens)
Sequence (Q9NZQ8 1-1165): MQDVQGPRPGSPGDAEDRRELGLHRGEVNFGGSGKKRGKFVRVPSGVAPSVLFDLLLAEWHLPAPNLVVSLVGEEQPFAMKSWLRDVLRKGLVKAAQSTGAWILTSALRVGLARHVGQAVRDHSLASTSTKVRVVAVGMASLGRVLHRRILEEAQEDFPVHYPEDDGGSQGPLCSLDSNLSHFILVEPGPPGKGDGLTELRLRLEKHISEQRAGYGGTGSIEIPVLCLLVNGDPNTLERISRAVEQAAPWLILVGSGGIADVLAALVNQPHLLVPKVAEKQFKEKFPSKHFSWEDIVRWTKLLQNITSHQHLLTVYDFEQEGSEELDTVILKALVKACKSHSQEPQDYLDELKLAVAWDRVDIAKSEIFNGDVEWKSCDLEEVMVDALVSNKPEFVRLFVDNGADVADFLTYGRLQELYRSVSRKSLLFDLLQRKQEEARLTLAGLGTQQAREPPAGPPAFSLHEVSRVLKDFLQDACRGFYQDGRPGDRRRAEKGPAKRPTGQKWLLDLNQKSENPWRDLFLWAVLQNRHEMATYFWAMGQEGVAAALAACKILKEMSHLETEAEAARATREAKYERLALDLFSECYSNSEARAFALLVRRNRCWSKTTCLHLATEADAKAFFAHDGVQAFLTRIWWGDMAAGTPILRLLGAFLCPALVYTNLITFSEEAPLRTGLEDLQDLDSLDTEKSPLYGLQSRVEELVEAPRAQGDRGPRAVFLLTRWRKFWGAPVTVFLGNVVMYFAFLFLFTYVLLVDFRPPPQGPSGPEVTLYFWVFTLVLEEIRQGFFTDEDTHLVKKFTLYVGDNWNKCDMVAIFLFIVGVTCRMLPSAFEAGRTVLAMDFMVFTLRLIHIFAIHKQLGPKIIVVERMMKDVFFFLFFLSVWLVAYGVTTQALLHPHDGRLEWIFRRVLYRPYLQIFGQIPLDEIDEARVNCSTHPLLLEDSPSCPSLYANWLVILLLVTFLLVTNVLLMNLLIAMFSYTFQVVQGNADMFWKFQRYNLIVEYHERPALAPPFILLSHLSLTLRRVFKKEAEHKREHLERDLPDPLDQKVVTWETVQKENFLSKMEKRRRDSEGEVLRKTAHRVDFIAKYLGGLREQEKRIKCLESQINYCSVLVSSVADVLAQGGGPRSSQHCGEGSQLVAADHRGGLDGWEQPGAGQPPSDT
assay-notes: FLIPR-based assay for membrane potential and calcium mobilization (TRPM5 inhibiting activity)
conditions-used: live cells, 30° C., read-out: hTrpM5 IC50
quantity: pIC50
Units for pIC50: none; it is -log10 of a concentration expressed in mol/L.

Example cases with answers are listed next.
Cc1cn(CCC(=O)N/N=C/c2ccc3c(c2)OCCCO3)c2ccccc12 :: 6.74
COc1cc(/C=N/NC(=O)CCn2cc(C)c3c(C)cccc32)cc2cccnc12 :: 8.85
COc1ccc(/C=N/N(C)C(=O)C2CC2c2ccccc2)cc1OC (stereo not drawn) :: 5.30

Consider the additional compound presented here.
[in] Any idea what its pIC50 is? The compound is `Cc1cn(CCC(=O)N/N=C/c2ccc3ncccc3c2)c2ccccc12`
[out] 6.47
